Test: Hemolytic activity against porcine erythrocytes assessed as hemoglobin release at 512 ug/ml incubated for 1 hr by spectrophotometric analysis relative to control
Assay type: ADME, cell-based, Sus scrofa, Erythrocyte
Settings: pig, read-out: Activity
measure-name: hemolysis at 1 h, 512 ug/ml

Kindly indicate its recorded hemolysis at 1 h, 512 ug/ml. Item: Cl.Cl.Cl.Cl.Cl.NC[C@H]1O[C@H](O[C@H]2[C@H](OCCCCCCCCCCCCN3CCN(c4cc5c(cc4F)c(=O)c(C(=O)O)cn5C4CC4)CC3)[C@@H](O)[C@H](N)C[C@@H]2N)[C@H](N)C[C@@H]1O
< 10%
